Molecular target: PI3K-α (Homo sapiens (Human), UniProt P42336, K111N)
Sequence (P42336 whole entry K111N, looked up): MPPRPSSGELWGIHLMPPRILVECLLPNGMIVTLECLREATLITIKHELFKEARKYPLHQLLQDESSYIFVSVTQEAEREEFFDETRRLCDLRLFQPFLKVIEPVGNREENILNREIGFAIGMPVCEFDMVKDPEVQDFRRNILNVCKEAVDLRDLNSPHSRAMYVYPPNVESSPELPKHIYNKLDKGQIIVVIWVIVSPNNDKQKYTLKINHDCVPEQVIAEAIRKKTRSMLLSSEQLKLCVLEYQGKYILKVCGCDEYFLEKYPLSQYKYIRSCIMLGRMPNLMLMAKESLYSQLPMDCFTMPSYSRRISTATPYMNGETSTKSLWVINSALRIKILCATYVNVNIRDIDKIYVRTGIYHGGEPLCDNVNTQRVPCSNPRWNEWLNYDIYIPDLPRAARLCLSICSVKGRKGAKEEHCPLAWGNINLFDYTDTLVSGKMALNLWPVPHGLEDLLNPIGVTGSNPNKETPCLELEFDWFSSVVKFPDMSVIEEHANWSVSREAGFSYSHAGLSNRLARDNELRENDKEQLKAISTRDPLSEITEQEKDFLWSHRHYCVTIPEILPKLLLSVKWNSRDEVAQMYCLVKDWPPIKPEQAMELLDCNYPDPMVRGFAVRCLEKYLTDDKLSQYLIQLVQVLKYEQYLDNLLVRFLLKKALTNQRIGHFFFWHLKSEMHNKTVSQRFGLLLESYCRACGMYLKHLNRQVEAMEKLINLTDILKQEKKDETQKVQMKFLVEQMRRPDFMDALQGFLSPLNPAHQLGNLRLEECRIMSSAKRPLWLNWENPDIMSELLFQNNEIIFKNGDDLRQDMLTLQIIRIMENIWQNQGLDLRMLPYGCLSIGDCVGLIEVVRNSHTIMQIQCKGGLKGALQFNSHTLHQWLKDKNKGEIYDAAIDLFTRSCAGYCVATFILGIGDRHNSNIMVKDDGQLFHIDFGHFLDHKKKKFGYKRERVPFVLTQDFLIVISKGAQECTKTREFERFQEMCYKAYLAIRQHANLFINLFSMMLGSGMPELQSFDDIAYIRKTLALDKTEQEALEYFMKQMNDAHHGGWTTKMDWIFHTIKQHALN
Sequence (P27986 whole entry partner, looked up): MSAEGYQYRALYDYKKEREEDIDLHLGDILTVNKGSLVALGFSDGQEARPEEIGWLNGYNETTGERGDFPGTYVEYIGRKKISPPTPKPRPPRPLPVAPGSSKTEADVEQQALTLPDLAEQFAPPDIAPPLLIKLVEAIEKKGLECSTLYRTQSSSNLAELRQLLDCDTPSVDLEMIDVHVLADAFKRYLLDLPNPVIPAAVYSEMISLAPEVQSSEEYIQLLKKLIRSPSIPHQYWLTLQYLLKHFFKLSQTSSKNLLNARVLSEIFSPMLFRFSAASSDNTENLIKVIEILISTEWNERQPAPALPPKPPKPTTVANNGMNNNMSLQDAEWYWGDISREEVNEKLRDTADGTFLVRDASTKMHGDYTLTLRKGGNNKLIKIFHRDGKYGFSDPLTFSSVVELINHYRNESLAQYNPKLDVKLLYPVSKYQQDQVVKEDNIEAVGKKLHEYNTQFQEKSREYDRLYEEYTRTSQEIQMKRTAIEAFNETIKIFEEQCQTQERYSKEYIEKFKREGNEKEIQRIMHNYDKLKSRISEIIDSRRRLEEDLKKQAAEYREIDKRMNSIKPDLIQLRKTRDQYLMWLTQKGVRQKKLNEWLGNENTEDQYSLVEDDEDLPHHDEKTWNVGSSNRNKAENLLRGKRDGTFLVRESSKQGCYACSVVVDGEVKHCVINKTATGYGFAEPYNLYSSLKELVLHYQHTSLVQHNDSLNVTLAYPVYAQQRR
Assay: Phosphorylated AKT (Thr308) in BT474 cells (PI3K-α cell assay)
Conditions: Test protocol c, mean of replicates
observed.property: IC50 (nM)
One number for each entry, in nM.

Some compounds with known IC50 results, for comparison:
Data request: Query (compound): CCn1nc(C2CCN(C(=O)[C@@H](O)CO)CC2)nc1-c1cnc(N)c(-c2nnc(C(C)(C)C)o2)n1 [Example 10] ; field requested: IC50
Data returned: 85

Data request: Suppose we examine the compound Cn1nc(C2CCN(C(=O)CC(=O)O)CC2)nc1-c1cnc(N)c(-c2nnc(C(C)(C)C)o2)n1 [Example 8] ; what IC50 value has been reported?
Data returned: 590

Data request: Which IC50 is listed for CCn1nc(C2CCN(C(=O)[C@H](O)CO)CC2)nc1-c1cnc(N)c(-c2nnc(C(C)(C)C)o2)n1 [Example 11] ?
Data returned: 110

Further cases:
Data request: Would you kindly share the measured IC50 for Cn1nc(C2CCN(C(=O)C(C)(C)O)CC2)nc1-c1cnc(N)c(-c2nnc(C(C)(C)C)o2)n1 [Example 7] ?
Data returned: 420
